# System: aryl hydrocarbon receptor AhR
# Protocol details: AhR gene reporter assay, agonist mode
Reported metric: pEC50
Just the number, please; pEC50 means minus log10 of the concentration in mol/L.

What value of pEC50 has been reported for the following compound? Cc1c(OCC(F)(F)F)ccnc1C[S@+]([O-])c1nc2ccccc2[nH]1 5.72

----------
# System: CYP1A1 mRNA
# Protocol details: CYP1A1 mRNA induction in primary human hepatocytes (qRT-PCR)
# Measurement context: hepatocyte culture Hep220770, 24 h, 100 µM
# Text: Primary human hepatocytes used in this study were obtained from two sources: (i) from multiorgan donor HH52; the use of liver cells of donor HH52 was approved by “Ethical committee at the Faculty Hospital Olomouc”,and it was in accordance with Transplantation law #285/2002 Sb; “Ethical committee at the Faculty Hospital Olomouc” waived the authors from obtaining consent from the next of kin, regarding human hepatocytes obtained from liver donor HH52. […]
Reported metric: CYP1A1 mRNA induction (fold)
Numbers only; they are read as fold.

Field: example entries. Status: answers known.
Compound: Cc1c(OCC(F)(F)F)ccnc1C[S+]([O-])c1nc2ccccc2[nH]1 (racemic) [rac-LAN, rac-lansoprazole]
CYP1A1 mRNA induction / fold: 358
//
Compound: COc1ccc2[nH]c([S+]([O-])Cc3ncc(C)c(OC)c3C)nc2c1 (racemic) [rac-OME, rac-omeprazole]
CYP1A1 mRNA induction / fold: 740
//
Compound: Cc1c(OCC(F)(F)F)ccnc1C[S@@+]([O-])c1nc2ccccc2[nH]1 [R-LAN, R-lansoprazole]
CYP1A1 mRNA induction / fold: 575

What value of CYP1A1 mRNA induction has been reported for the following compound? COc1ccc2nc([S@@+]([O-])Cc3ncc(C)c(OC)c3C)[nH]c2c1 [S-OME, S-omeprazole] 736

----------
EC50 at 24 h values by entry
# Tested on: aryl hydrocarbon receptor AhR
# Protocol details: AhR gene reporter assay, agonist mode
# Measurement context: human
Numbers only; they are read as µM.

Field: example entries. Status: answers known.
Compound: Cc1c(OCC(F)(F)F)ccnc1C[S+]([O-])c1nc2ccccc2[nH]1 (racemic)
Unit spec: µM
Value observed: 2.4

Compound: COc1ccc2nc([S@@+]([O-])Cc3ncc(C)c(OC)c3C)[nH]c2c1
Unit spec: µM
Value observed: 22.9

Compound: Cc1c(OCC(F)(F)F)ccnc1C[S@@+]([O-])c1nc2ccccc2[nH]1
Unit spec: µM
Value observed: 5.7

Let us move to another entry and its EC50 at 24 h.
What value of EC50 at 24 h has been reported for the following compound? COc1ccc2[nH]c([S+]([O-])Cc3ncc(C)c(OC)c3C)nc2c1 (racemic) 30.1

----------
# System: aryl hydrocarbon receptor AhR
# Protocol details: AhR gene reporter assay, agonist mode
# Measurement context: read-out: AhR agonist EC50; AZ-AHR cells, 24 h, luciferase, average of five passages
Reported metric: EC50 (µM)
Numbers only; they are read as µM.

Missing value: EC50, aryl hydrocarbon receptor AhR, entry COc1ccc2nc([S@+]([O-])Cc3ncc(C)c(OC)c3C)[nH]c2c1 . Fill in? 35.1

----------
# Tested on: aryl hydrocarbon receptor AhR
# Protocol details: AhR gene reporter assay, antagonist mode (with TCDD)
# Measurement context: read-out: AhR antagonist IC50; AZ-AHR cells, 24 h, in the presence of TCDD (5 nM), average of four passages
Reported metric: IC50
State the value, then name its unit.

What value of IC50 has been reported for the following compound? COc1ccc2nc([S@+]([O-])Cc3ncc(C)c(OC)c3C)[nH]c2c1 54.8 µM
